Reference for the values: patent US4198429A

ID50 values histamine reference
Tested on: bronchospasm caused by histamine
Assay: Bronchospasmolytic activity, modified Konzett-Rossler test, histamine-induced bronchospasm
Format: in vivo, Guinea pig
Conditions: dose inhibiting effect of asthmogenic agent to 50% of initial value, male white Guinea pigs, anesthesized, V. jugularis
Just the number please, in ng/animal, no unit attached.

Illustrative cases are given below, each with its answer.
{"columns": ["molecule", "ID50 values histamine, ng/animal"],
 "data": [
  ["CCCCC[C@H](O)/C=C/[C@H]1CCC(=O)[C@@H]1CCC(C)CCCC(=O)OCCCC (stereo partly shown) [Example 3]", 0.63],
  ["CCCCCCOC(=O)CCCC(C)CC[C@H]1C(=O)CC[C@@H]1/C=C/[C@@H](O)CCCCC (stereo partly shown) [Example 1]", 1],
  ["CCCCC[C@H](O)/C=C/[C@H]1CCC(=O)[C@@H]1CCC(C)CCCC(=O)OCCCc1ccccc1 (stereo partly shown) [Example 9]", 1]
]}

Now, please, on to the next molecule.
[Q] Record request: ID50 values histamine value, item CCCCC[C@H](O)/C=C/[C@H]1CCC(=O)[C@@H]1CCC(C)CCCC(=O)OC1CCCCC1 (stereo partly shown) [Example 6]
[A] 7.5

###

Tested on: spasm caused by acetylcholine
Assay: Bronchospasmolytic activity, modified Konzett-Rossler test, acetylcholine-induced bronchospasm
Format: in vivo, Guinea pig
Settings: dose inhibiting effect of asthmogenic agent to 50% of initial value, male white Guinea pigs, anesthesized, V. jugularis
Below, each entry is listed alongside its reported ID50 values acetylcholine.
Numbers only here, please. The scale is ng/animal.

See these solved cases before continuing.
{"columns": ["compound", "units-text", "ID50 values acetylcholine"],
 "data": [
  ["CCCCC[C@H](O)/C=C/[C@H]1CCC(=O)[C@@H]1CCC(C)CCCC(=O)OCCCC (stereo partly shown)", "ng/animal", 6.9],
  ["CCCCC[C@H](O)/C=C/[C@H]1CCC(=O)[C@@H]1CCC(C)CCCC(=O)OCCOCC (stereo partly shown)", "ng/animal", 0.88],
  ["CCCCCCOC(=O)CCCC(C)CC[C@H]1C(=O)CC[C@@H]1/C=C/[C@@H](O)CCCCC (stereo partly shown)", "ng/animal", 3]
]}

[Q] Endpoint output: ID50 values acetylcholine of CCCCC[C@H](O)/C=C/[C@H]1CCC(=O)[C@@H]1CCC(C)CCCC(=O)O (stereo partly shown) [comp. II, 5-methyl-10,11-dihydroprostaglandin-A1] . Value?
[A] 10

###

Listed here: items and their measured ID50 values histamine.
Tested on: bronchospasm caused by histamine
Experiment: Bronchospasmolytic activity, modified Konzett-Rossler test, histamine-induced bronchospasm
Assay type: in vivo, Guinea pig
Conditions: dose inhibiting effect of asthmogenic agent to 50% of initial value, male white Guinea pigs, anesthesized, V. jugularis
Supply the numeric figure in ng/animal, leaving out any unit text.

{"columns": ["compound", "endpoint-name", "endpoint-result"],
 "data": [
  ["CCCCC[C@H](O)/C=C/[C@H]1CCC(=O)[C@@H]1CCC(C)CCCC(=O)O (stereo partly shown) [comp. II, 5-methyl-10,11-dihydroprostaglandin-A1]", "ID50 values histamine", 5],
  ["CCCCC[C@H](O)/C=C/[C@H]1CCC(=O)[C@@H]1CCC(C)CCCC(=O)OCCCC(C)(C)C (stereo partly shown) [Example 4]", "ID50 values histamine", 7],
  ["CCCCC[C@H](O)/C=C/[C@H]1CCC(=O)[C@@H]1CCC(C)CCCC(=O)OCCOCC (stereo partly shown) [Example 7]", "ID50 values histamine", 0.4]
]}

[Q] State the recorded ID50 values histamine for this entry: CCCCCCCCCCOC(=O)CCCC(C)CC[C@H]1C(=O)CC[C@@H]1/C=C/[C@@H](O)CCCCC (stereo partly shown) [Example 2]
[A] 4.2
